Data origin: ChEMBL document CHEMBL2021921

# measurementTarget: Rho-associated protein kinase 2 (Homo sapiens)
# Sequence (O75116 whole entry): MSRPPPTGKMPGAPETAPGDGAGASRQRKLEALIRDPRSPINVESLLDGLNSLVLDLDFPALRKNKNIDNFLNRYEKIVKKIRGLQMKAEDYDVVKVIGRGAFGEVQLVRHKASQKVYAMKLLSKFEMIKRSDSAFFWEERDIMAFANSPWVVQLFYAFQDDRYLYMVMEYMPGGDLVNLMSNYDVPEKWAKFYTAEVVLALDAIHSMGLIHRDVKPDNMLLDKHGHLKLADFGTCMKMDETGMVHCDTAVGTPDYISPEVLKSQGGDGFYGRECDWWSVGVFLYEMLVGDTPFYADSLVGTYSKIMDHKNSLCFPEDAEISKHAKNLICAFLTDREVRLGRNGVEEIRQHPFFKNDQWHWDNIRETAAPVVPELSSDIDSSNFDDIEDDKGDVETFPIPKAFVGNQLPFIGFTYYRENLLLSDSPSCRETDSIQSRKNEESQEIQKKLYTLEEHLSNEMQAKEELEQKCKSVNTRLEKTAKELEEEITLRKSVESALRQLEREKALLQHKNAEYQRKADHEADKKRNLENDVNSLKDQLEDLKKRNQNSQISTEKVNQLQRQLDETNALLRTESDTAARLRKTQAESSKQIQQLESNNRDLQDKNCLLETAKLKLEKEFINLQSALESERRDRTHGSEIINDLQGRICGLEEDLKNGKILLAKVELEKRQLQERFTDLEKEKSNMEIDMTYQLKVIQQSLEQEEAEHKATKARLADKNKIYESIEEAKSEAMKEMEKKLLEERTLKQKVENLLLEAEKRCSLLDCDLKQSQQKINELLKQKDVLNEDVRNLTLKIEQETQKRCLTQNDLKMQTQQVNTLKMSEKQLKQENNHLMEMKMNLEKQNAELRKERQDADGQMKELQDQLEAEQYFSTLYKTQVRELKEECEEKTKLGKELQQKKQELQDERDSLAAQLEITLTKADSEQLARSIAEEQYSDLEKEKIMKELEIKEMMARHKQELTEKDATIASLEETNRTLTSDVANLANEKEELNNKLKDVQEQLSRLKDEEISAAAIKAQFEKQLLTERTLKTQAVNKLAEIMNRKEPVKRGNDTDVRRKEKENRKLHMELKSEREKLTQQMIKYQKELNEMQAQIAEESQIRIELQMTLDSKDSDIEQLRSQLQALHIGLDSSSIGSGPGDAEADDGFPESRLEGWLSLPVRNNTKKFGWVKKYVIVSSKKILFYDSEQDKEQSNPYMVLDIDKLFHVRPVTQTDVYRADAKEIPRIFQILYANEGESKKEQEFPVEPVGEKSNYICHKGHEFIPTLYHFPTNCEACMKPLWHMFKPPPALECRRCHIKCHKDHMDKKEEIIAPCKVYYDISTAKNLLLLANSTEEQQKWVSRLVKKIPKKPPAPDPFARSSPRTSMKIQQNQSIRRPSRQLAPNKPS
# measurementDescription: Displacement of fluorescent-ARC-1063 from His6-tagged recombinant human ROCK2 by luminescence intensity assay
pKd: −log10 of the molar value.
measurementName: pKd

1. NCCCC[C@@H](NC(=O)CCCCCCCN1CCCN(S(=O)(=O)c2cccc3cnccc23)CC1)C(=O)NCCCCCC(=O)N[C@H](CCCN=C(N)N)C(=O)N[C@H](CCCN=C(N)N)C(N)=O
2. NCCCC[C@@H](NC(=O)CCCCCNC(=O)[C@H]1O[C@@H](n2cnc3c(N)ncnc32)[C@H](O)[C@@H]1O)C(=O)NCCCCCC(=O)N[C@H](CCCN=C(N)N)C(=O)N[C@H](CCCN=C(N)N)C(N)=O
When the recorded pKd values are compared, which is smaller: that of 1 or that of 2 ? Respond with the label that goes with your answer.
1

====

Selectivity Index values, listed per item
# measurementDescription: Selectivity ratio of Kd for His6-tagged recombinant human ROCK2 to Kd for recombinant bovine PKAc
Where a SMILES comes first, the peptide text is derived from it. [ ]: non-standard residue; d: D form. The star is where a group is joined. Adenosine(5'-uronoyl) = Nc1ncnc2c1ncn2[C@@H]1O[C@H](C(=O)*)[C@@H](O)[C@H]1O; X1 = Nc1nccc(-c2ccc(C(=O)*)s2)n1; Ahx = NCCCCCC(=O)O
Reply with just the number.

Some solved entries appear below for comparison.
N=C(N)NCCC[C@@H](NC(=O)[C@@H](CCCNC(=N)N)NC(=O)[C@@H](CCCNC(=N)N)NC(=O)[C@@H](CCCNC(=N)N)NC(=O)[C@@H](CCCNC(=N)N)NC(=O)[C@@H](CCCNC(=N)N)NC(=O)CCCCCNC(=O)[C@@H](CCCCN)NC(=O)CCCCCNC(=O)[C@H]1O[C@@H](n2cnc3c(N)ncnc32)[C@H](O)[C@@H]1O)C(N)=O ({Adenosine(5'-uronoyl)-Ahx}-[dK][Ahx][dR][dR][dR][dR][dR][dR]-NH2) ... 12
N=C(N)NCCC[C@@H](NC(=O)[C@@H](CCCNC(=N)N)NC(=O)CCCCCNC(=O)[C@@H](CCCCN)NC(=O)CCCCCNC(=O)[C@H]1O[C@@H](n2cnc3c(N)ncnc32)[C@H](O)[C@@H]1O)C(N)=O ... 0.7

Now for another entry.
Returns the measured Selectivity Index for the input molecule. Input: N=C(N)NCCC[C@@H](NC(=O)[C@@H](CCCNC(=N)N)NC(=O)[C@@H](CCCNC(=N)N)NC(=O)[C@@H](CCCNC(=N)N)NC(=O)[C@@H](CCCNC(=N)N)NC(=O)[C@@H](CCCNC(=N)N)NC(=O)CCCCCNC(=O)[C@@H](CCCCN)NC(=O)CCCCCNC(=O)c1ccc(-c2ccnc(N)n2)s1)C(N)=O ({X1-Ahx}-[dK][Ahx][dR][dR][dR][dR][dR][dR]-NH2)
10

====

# measurementDescription: Displacement of fluorescent-ARC-1063 from recombinant bovine PKAc by luminescence intensity assay
# Design: species or system Bos taurus
measurementName: Kd (nM)

P. O=S(=O)(c1cccc2cnccc12)N1CCCNCC1 [FASUDIL]
Q. N=C(N)NCCC[C@@H](NC(=O)[C@@H](CCCNC(=N)N)NC(=O)CCCCCNC(=O)[C@@H](CCCCN)NC(=O)CCCCCNC(=O)[C@H]1O[C@@H](n2cnc3c(N)ncnc32)[C@H](O)[C@@H]1O)C(N)=O
R. N=C(N)NCCC[C@@H](NC(=O)[C@@H](CCCNC(=N)N)NC(=O)CCCCCNC(=O)[C@@H](CCCCN)NC(=O)CCCCCCCN1CCCN(S(=O)(=O)c2cccc3cnccc23)CC1)C(N)=O
S. O=S(=O)(NCCNC/C=C/c1ccc(Br)cc1)c1cccc2cnccc12
Output the listed items in decreasing order of Kd. Returns: the labels arranged in the requested order.
P, R, S, Q
(P: 420 nM, R: 25 nM, S: 17 nM, Q: 4.5 nM)
